Data origin, for the record: patent US20240425571A1

Molecular target: T1, human GARP (glycoprotein A repetitions predominant, LRRC32) on the cell surface (human, UniProt Q14392 20-662)
T1 construct: whole, on cells; also called hGARP; free GARP
T1 sequence (looked up): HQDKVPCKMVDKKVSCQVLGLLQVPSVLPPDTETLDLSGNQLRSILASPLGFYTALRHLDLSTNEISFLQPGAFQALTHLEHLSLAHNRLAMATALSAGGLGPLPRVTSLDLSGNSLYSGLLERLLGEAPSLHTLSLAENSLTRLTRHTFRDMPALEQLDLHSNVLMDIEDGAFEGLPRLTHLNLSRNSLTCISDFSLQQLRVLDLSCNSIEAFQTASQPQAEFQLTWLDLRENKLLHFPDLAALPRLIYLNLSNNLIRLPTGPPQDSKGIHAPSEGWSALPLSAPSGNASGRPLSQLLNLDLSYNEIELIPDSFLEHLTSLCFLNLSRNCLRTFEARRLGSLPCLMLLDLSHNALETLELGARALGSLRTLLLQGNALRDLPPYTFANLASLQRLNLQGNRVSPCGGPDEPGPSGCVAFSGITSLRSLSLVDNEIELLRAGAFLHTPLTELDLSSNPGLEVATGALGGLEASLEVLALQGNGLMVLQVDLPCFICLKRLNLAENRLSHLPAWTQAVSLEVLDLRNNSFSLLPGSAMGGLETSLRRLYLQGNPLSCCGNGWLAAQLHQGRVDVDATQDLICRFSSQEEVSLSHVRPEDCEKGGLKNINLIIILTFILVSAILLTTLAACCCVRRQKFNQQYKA
Assay: FACS, Ag(+) cells, supernatant heated 70 C 5 min, 5 ug/ml
Each entry below lists one item and its recorded MFI value.
Write it as a number; the unit MFI goes unstated.

Solved cases (2 shown):
{"Binder": "huPIIO-1VH4VL2 (antibody, V domains shown, Humanized IgG from Expi293, tested as culture supernatant; also called H4L2; HuPIIO-1VH4/L2) VH: DVQLQESGPGLVKPSQTLSLTCTVSGYSITSDYAWNWIRQFPGNKLEWMGYISYSGSTSYTPSLKSRITISRDTSKNHFFLQLSSVTAEDTATYYCAKSGGDYYGSSSYWYFDVWGQGTTVTVSS VL: DIVLTQSPSSLAVSLGERVTMNCKSSQSLLNSRSQKNYLAWYQQKPGQPPKLLIYGASTRGSGVPDRFSGSGSGTDFTLTISSVQAEDVAVYYCQNDHSYPFTFGQGTKLEIKR", "Value units": "MFI", "Obs value": 25.1}
{"Binder": "huPIIO-1VH2VL1 (antibody, V domains shown, Humanized IgG from Expi293; also called H2L1; HuPIIO-1VH2/L1) VH: QVQLQESGPGLVKPSQTLSLTCTVSGYSITSDYAWNWIRQFPGNKLEWMGYISYSGSTSYTPSLKSRITISRDTSKNHFFLKLSSVTAADTAVYYCAKSGGDYYGSSSYWYFDVWGQGTMVTVSS VL: DIVLTQSPSSLAVSLGERATMNCKSSQSLLNSRSQKNYLAWYQQKPGQPPKLLIYGASTRGSGVPDRFSGSGSGTDFTLTISSLQAEDVAVYYCQNDHSYPFTFGQGTKLEIKR", "Value units": "MFI", "Obs value": 26.2}

Inquiry: So what's the measured MFI for this one? huPIIO-1VH3VL3 (antibody, V domains shown, Humanized IgG from Expi293, tested as culture supernatant; also called H3L3; HuPIIO-1VH3/L3) VH: DVQLQESGPGLVKPSQTLSLTCTVSGYSITSDYAWNWIRQFPGNKLEWMGYISYSGSTSYTPSLKSRITISRDTSKNHFFLKLSSVTAADTATYYCAKSGGDYYGSSSYWYFDVWGQGTTVTVSS VL: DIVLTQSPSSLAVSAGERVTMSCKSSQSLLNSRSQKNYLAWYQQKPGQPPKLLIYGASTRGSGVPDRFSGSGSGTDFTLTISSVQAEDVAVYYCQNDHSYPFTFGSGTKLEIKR
Reply text: 25.8
